- target-entity: T1, human amylin-3(a) receptor (human, UniProt P30988 25-474; O60896 24-148)
- T1 sequence (looked up) 1: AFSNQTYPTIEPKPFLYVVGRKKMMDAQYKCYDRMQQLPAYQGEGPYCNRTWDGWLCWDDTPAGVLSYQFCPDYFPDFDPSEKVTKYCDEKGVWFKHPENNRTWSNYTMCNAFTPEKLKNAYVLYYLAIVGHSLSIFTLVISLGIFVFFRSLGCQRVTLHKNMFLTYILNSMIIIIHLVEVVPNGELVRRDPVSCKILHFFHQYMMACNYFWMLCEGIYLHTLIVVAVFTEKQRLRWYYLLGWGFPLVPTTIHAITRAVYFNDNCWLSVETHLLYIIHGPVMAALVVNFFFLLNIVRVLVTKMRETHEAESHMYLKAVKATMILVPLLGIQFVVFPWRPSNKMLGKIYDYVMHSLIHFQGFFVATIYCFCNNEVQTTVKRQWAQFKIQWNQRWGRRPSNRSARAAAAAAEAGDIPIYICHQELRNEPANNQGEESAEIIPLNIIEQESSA
- T1 sequence (looked up) 2: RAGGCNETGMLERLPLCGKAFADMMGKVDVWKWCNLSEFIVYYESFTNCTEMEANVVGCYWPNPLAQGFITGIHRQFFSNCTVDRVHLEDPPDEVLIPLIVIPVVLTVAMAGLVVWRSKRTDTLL
- test: cell-based or functional assay
Numbered stars: 1 amine (or outer) side, 2 acyl side, 3 side chain; on linkers, the order of the positions; unused ones are H or OH. Square brackets hold non-standard residues; d marks the D form. Side chains are listed from the residue outwards. * marks the point of attachment. C18 diacid = O=C(O)CCCCCCCCCCCCCCCCC(=O)*; C16 diacid = O=C(O)CCCCCCCCCCCCCCC(=O)*; γGlu = O=C(O)[C@H](CCC(=O)[*:2])N[*:1]; Chem. 27 = not defined here; Chem. 28 = not defined here; Chem. 29 = not defined here; AEEA = NCCOCCOCC(=O)O; Aib = CC(C)(N)C(=O)O
Listed here are binders together with their documented hAMYR3 Potency, no HSA, EC50 [pM].

binder	hAMYR3 Potency, no HSA, EC50 [pM], pM
Compound 14 (peptide) peptide: H[Aib]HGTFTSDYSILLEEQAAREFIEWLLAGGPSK([AEEA-AEEA-γGlu-C18 diacid])GAPPPSGGGGASELSTAALGRLSAELHRLATLPRTETGSGSP-NH2	2.21
Compound 61 (peptide) peptide: H[Aib]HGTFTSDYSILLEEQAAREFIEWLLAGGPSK([AEEA-AEEA-γGlu-C16 diacid])GAPPPSGGGEASHLSTAQTARLSAELHRLADLPRTETGSGSP-NH2	2.97
Compound 90 (peptide) peptide: H[Aib]HGTFTSDYSILLEEQAAREFIEWLLAGGPSSGEASHLSTAALGRLSAELHRLATLPK([AEEA-AEEA-γGlu-C18 diacid])TETGSGSP-NH2	5.45
Compound 69 (peptide) peptide: H[Aib]HGTFTSDYSILLEEQAAREFIEWLLAGGPSRGEASHLSTAQTQRLSAELHK([AEEA-AEEA-γGlu-C18 diacid])LATLPRTETGSGSP-NH2	3.43
Compound 104 (reading uncertain) peptide: H[Aib]HGTFTSDYSILLEEQAAREFIEWLLAGGPSSGAGQAPGQAPGASHLSTAQTARLSAELHK(Chem. 27)LATLPRTETGSGSP-NH2	1.49
Compound 29 (reading uncertain) peptide: Y[Aib]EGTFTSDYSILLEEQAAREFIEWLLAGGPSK(Chem. 28)GEASELSTAALGRLSAELHYLATLPRTETGSGSP-NH2	3.09
Compound 10 (reading uncertain) peptide: Y[Aib]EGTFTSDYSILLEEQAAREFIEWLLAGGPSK(Chem. 29)GAPPPSGGGEASELSTAALGRLSAELHELATLPRTETGSGSP-NH2	6.8
Compound 75 (peptide) peptide: H[Aib]HGTFTSDYSILLEEQAAREFIEWLLAGGPSGGEASHLSTAQTQRLSAELHK([AEEA-AEEA-γGlu-C18 diacid])LATLPRTETGSGSP-NH2	2.49
